- Tested on: Plasmodium falciparum
- protocol.notes: GSK_TCMDC: Inhibition of Plasmodium falciparum 3D7 in whole red blood cells, using parasite LDH activity as an index of growth. Test compounds present at 2uM
- Format: functional
reported.metric: Inhibition (%)
One number for each entry, in %.

Some compounds with recorded Inhibition:
CC1=C(C(=O)Nc2ccc(Cl)cc2)C(c2ccncc2)n2nc(C(F)(F)F)nc2N1 (centres undefined) : 87
O=C(Nc1cccc(C(F)(F)F)c1)c1cccc(S(=O)(=O)NC2CCCN(CC3CCCCC3)C2)c1.O=C(O)C(F)(F)F (centres undefined) : 97

Parameters: items (list). Returns: Inhibition for each item.
1. CCOc1cc2ncnc(Nc3cc(Cl)c(Cl)c(Cl)c3)c2cc1OCC.Cl
2. Cc1ccccc1C1CCN(C2CCC(NC(=O)c3ccc(-c4ccccc4)s3)CC2)CC1 (centres undefined)
3. Cc1cc(OCCCN2CCC(NS(=O)(=O)c3ccc(Cl)c(Cl)c3)CC2)c2ccccc2n1
4. Cc1ccc(OC2CCN(c3ccc(C(=O)NC4CC4)cn3)CC2)cc1
5. CCOc1ccc(-c2nc(NC(=O)COc3ccc(OC)cc3)sc2C)cc1
6. O=[N+]([O-])c1ccc(Nc2nc(N/N=C/c3ccc(-c4ccc([N+](=O)[O-])cc4)o3)nc(Nc3ccccc3)n2)cc1

(A)
1: 100; 2: 100; 3: 96; 4: 87; 5: 99; 6: 100

###

- Test system: HepG2
- protocol.notes: GSK_TCMDC: Percent inhibition of human HepG2 cell line. Test compounds present at 10uM.
- Assay type: functional
# Met = Inhibition below 30% (exclusive); Not met = Inhibition at/above 30%

(Q) Is it true that Inhibition reported for CC1(C)N=C(N)N=C(N)N1OCc1ccc2c(c1)OCO2 is less than 30%?
(A) Not met

(Q) Is it true that Inhibition reported for CC1(C)N=C(N)N=C(N)N1O.Cl is less than 30%?
(A) Met

(Q) Is it true that Inhibition reported for COc1cccc2c1CCN(CCN1CCC(NC(=O)c3ccc(-c4cccc(Cl)c4Cl)cc3)CC1)C2 is less than 30%?
(A) Not met

(Q) Is it true that Inhibition reported for CC(NC(=O)NC1CCC(CCN2CCCc3ccccc32)CC1)c1cccc2ccccc12.O=C(O)C(F)(F)F (centres undefined) is less than 30%?
(A) Met

(Q) Is it true that Inhibition reported for Nc1c2c(nc3ccc(Oc4ccc(Br)cc4Br)cc13)CCCC2 is less than 30%?
(A) Not met

###

- Test system: Plasmodium falciparum
- protocol.notes: GSK_TCMDC: Inhibition of Plasmodium falciparum Dd2 in whole red blood cells, using parasite LDH activity as an index of growth. Test compounds present at 2uM
- Type: functional
For each record, write down the corresponding Inhibition.

COc1ccc(Nc2nc(NCc3cccnc3)cc(-c3ccc(OC)cc3)n2)cc1 : 16%

Parameters: items (list). Returns: Inhibition for each item.
1. O=C(/C=C/c1ccc(Cl)c(Cl)c1)NCCCCCN1CCN(C(=O)Nc2ccc(Cl)c(C(F)(F)F)c2)CC1
2. Cc1ccc(-c2cc(C(=O)Nc3ccc(S(=O)(=O)N(C)Cc4ccccc4)cc3)[nH]n2)c(O)c1
3. CCOc1ccc2c(=NN=Cc3cccc(F)c3)cc(C)[nH]c2c1

(A)
0%
67%
100%

Parameters: items (list). Returns: Inhibition for each item.
1. CC(=O)NCC(=O)NC1=NC(=N)N(OCc2ccc3ccccc3c2)C(C)(C)N1
2. O=C(Nc1ccc(F)cc1)N1CCCN(c2ccnc3cc(Cl)ccc23)CC1.O=C(O)C(F)(F)F
3. CCN1CCN(Cc2ccc(NC(=O)c3cc4ccc5cccnc5c4[nH]3)cc2)CC1
4. COc1ccc(CCn2c(=N)c(C(=O)NCc3ccccc3)cc3c(=O)n4cccc(C)c4nc32)cc1
5. Cl.O=C(Nc1ccc2c(c1)CCN(C1CCC1)CC2)c1ccc(-n2ccnc2)cn1

(A)
1: 97%; 2: 16%; 3: 97%; 4: 37%; 5: 0%
